- procedureDetails: KKLEB cell viability reduction – uHTS, fluorescence assay plates, cytotoxicity control for CF NF-kB inhibitor project, primary screen (AID 602141)
- conditionSummary: KKLEB CF airway cells viability, ATPlite luminescence, overnight, at 5 µM
The whole screen tested about 360,000 compounds, of which about 1,300 (0.36%) were called active.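 The calls were made as follows: active = corrected activity change at or below -50% at 5 µM; inactive = the rest.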 The entries come from a sample that favours actives as a whole.
In this exercise, the only acceptable responses are active, inactive

The following compounds have reported results that may help.
• COCCNC(=O)CN1C2CCC1CC(O)(c1cccnc1)C2 (centres undefined) = inactive
• CC(Cc1ccccc1)NCCC(c1ccccc1)c1ccccc1 (centres undefined) = inactive
• c1ccc(C2NCc3ccccc3-n3cccc32)cc1 (centres undefined) = inactive
• CC12CCC(O)CC1CCC1C2CCC2(C)C(C(=O)CC(O)C(F)(F)F)CCC12 (centres undefined) = inactive
• COc1ccc(NC(=O)c2cn(CCC#N)nc2-c2ccc([N+](=O)[O-])cc2)cc1 = inactive

Outcome? C[C@]12CC[C@H](O)C[C@H]1CC[C@@H]1C2CC[C@]2(C)[C@@H](C3=CC(=O)OC3)[C@@H](O)C[C@]12O (some centres undefined)
active

Outcome? CCOc1cccc(=NC2CCCCC2)c2c(C)[nH]c(C)c12
inactive

* * *

- procedureDetails: KKLEB cell viability reduction – uHTS, fluorescence assay plates, cytotoxicity control for CF NF-kB inhibitor project, primary screen (AID 602141)
- conditionSummary: KKLEB CF airway cells viability, ATPlite luminescence, overnight, at 5 µM
Out of some 360,000 compounds screened, about 1,300 (0.36%) were called active.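 Rule for the calls: active = corrected activity change at or below -50% at 5 µM; inactive = the rest.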 This is one part of a sample in which actives are shown more often than they occur.
In this exercise, the only acceptable responses are 1.0 = active, 0.0 = inactive

• c1cncc(CNCCc2c[nH]c3ccccc23)c1 = 0.0
• Cc1nn(Cc2ccccc2Cl)c(Cl)c1C(=O)OC(C(=O)NC(N)=O)C(C)C (configuration not stated) = 0.0
• Cc1c(Oc2cc(NN3CCCCC3)c([N+](=O)[O-])cc2[N+](=O)[O-])cccc1[N+](=O)[O-] = 0.0
• O=c1[nH]c(CN2CC=C(c3ccccc3)CC2)nc2scc(-c3cccs3)c12 = 0.0
• CC(=O)OC1C2(CC3N4C(=O)C5(CO)SSC4(CC31O)C(=O)N5C)OC(C)C(C)(C)C2=O (configuration not stated) = 1.0

Outcome? CC1=C(C(=O)Nc2ccccc2)SCCO1
1.0

Outcome? Cc1ccc(C(C)C)c(OCC(=O)N2CCN(CC(=O)N3CCOCC3)CC2)c1
0.0

* * *

Quick list: activity change (cytotoxicity) per entry.
- procedureDetails: KKLEB cell viability reduction – uHTS, fluorescence assay plates, cytotoxicity control for CF NF-kB inhibitor project, primary screen (AID 602141)
- conditionSummary: KKLEB CF airway cells viability, ATPlite luminescence, overnight, at 5 µM, stronger effect = lower value
The whole screen tested about 360,000 compounds, of which about 1,300 (0.36%) were called active. What follows is part of a selection rich in actives, with near analogues and random picks from the rest.

Quick one: activity change (cytotoxicity) of CC1=C(C(=O)Nc2ccccc2)S(=O)(=O)CCO1 ?
-6% (inactive)

Quick one: activity change (cytotoxicity) of C[C@@]1([C@@H](NP(=O)(c2ccccc2)c2ccccc2)c2ccccc2)C[C@H]1CCO ?
15% (inactive)

Quick one: activity change (cytotoxicity) of Cc1ccc(CN2CCCC(C(=O)c3ccc4c(c3)OCO4)C2)cc1C (stereo not given) ?
-12.8% (inactive)
